System: Calu-3
Experiment: cells
Type: functional, cell-based
Details: Homo sapiens, Calu-3, 72 h
Description: Antiproliferative activity against human Calu3 cells overexpressing HER2 assessed as cell growth inhibition measured after 72 hrs by MTT assay
pIC50: −log10 of the molar value.
I'd be grateful if you could share measured pIC50 for these entries.

Record CN(C)C/C=C/C(=O)N1CCCOc2cc3ncnc(Nc4ccc(OCc5cccc(F)c5)c(Cl)c4)c3cc21 / Calu-3, pIC50 recorded as < 5.00

Record CN1CCN(C/C=C/C(=O)N2CCCOc3cc4ncnc(Nc5ccc(OCc6cccc(F)c6)c(Cl)c5)c4cc32)CC1 / Calu-3, pIC50 recorded as < 5.00

Record CCN(CC)C/C=C/C(=O)N1CCCOc2cc3ncnc(Nc4ccc(OCc5cccc(F)c5)c(Cl)c4)c3cc21 / Calu-3, pIC50 recorded as < 5.00

Record O=C(/C=C/CN1CCCC1)N1CCCOc2cc3ncnc(Nc4ccc(OCc5cccc(F)c5)c(Cl)c4)c3cc21 / Calu-3, pIC50 recorded as < 5.00

Record CS(=O)(=O)CCNCc1ccc(-c2ccc3ncnc(Nc4ccc(OCc5cccc(F)c5)c(Cl)c4)c3c2)o1 [LAPATINIB] / Calu-3, pIC50 recorded as 6.67

Record O=C(/C=C/CN1CCCC1)N1CCOc2cc3ncnc(Nc4ccc(OCc5cccc(F)c5)c(Cl)c4)c3cc21 / Calu-3, pIC50 recorded as 6.75

Record O=C(/C=C/CN1CCOCC1)N1CCCOc2cc3ncnc(Nc4ccc(OCc5cccc(F)c5)c(Cl)c4)c3cc21 / Calu-3, pIC50 recorded as < 5.00

Record O=C(/C=C/CN1CCOCC1)N1CCOc2cc3ncnc(Nc4ccc(OCc5cccc(F)c5)c(Cl)c4)c3cc21 / Calu-3, pIC50 recorded as 7.43

Record O=C(/C=C/CN1CCCCC1)N1CCCOc2cc3ncnc(Nc4ccc(OCc5cccc(F)c5)c(Cl)c4)c3cc21 / Calu-3, pIC50 recorded as < 5.00

Record CN1CCN(C/C=C/C(=O)N2CCOc3cc4ncnc(Nc5ccc(OCc6cccc(F)c6)c(Cl)c5)c4cc32)CC1 / Calu-3, pIC50 recorded as 6.85

Record CC1CCN(C/C=C/C(=O)N2CCCOc3cc4ncnc(Nc5ccc(OCc6cccc(F)c6)c(Cl)c5)c4cc32)CC1 / Calu-3, pIC50 recorded as < 5.00

Record CC1CCCCN1C/C=C/C(=O)N1CCCOc2cc3ncnc(Nc4ccc(OCc5cccc(F)c5)c(Cl)c4)c3cc21 (stereo not drawn) / Calu-3, pIC50 recorded as < 5.00

Record CCN(CC)C/C=C/C(=O)N1CCOc2cc3ncnc(Nc4ccc(OCc5cccc(F)c5)c(Cl)c4)c3cc21 / Calu-3, pIC50 recorded as 6.56
